# System: human ether-à-go-go-related gene (hERG) potassium channel (human, UniProt Q12809);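 further: peak tail current of the secondary pulse compared with the same well before compound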
# Sequence (Q12809 whole entry, looked up): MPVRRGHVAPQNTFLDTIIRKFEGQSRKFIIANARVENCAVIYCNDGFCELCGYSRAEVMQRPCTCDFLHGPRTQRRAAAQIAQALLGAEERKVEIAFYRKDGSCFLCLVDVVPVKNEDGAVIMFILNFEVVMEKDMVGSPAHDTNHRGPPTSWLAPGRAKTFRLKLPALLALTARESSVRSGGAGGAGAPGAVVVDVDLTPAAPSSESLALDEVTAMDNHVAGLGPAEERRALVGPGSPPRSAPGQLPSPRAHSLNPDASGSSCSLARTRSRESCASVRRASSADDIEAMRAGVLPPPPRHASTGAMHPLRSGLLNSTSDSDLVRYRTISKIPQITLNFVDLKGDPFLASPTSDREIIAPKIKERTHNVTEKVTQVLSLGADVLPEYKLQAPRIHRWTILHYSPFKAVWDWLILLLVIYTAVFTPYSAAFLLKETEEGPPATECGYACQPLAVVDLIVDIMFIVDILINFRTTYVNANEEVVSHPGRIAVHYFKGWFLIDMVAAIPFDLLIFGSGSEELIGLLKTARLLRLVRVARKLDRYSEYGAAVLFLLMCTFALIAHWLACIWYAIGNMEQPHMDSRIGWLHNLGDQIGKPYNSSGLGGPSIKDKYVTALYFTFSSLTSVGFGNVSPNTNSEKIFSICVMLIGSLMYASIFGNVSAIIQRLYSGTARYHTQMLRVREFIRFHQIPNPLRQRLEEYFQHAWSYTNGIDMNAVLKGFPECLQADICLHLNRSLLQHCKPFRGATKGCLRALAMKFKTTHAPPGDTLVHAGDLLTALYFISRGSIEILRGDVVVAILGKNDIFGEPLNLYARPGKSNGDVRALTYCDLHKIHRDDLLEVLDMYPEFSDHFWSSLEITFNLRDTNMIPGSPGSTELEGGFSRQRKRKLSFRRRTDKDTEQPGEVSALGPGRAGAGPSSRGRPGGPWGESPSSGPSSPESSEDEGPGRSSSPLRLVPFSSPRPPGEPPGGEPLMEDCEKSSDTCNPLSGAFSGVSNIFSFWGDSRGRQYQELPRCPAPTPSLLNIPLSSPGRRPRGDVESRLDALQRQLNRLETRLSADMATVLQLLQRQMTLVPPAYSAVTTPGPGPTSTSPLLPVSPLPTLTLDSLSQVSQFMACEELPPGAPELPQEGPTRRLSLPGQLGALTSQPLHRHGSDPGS
# Method Notes: primary screen, population patch clamp on CHO cells stably expressing hERG; higher = less effect of the substance
In all, about 310,000 compounds went through this assay and about 14,000 (4.5%) showed an effect of 50% or more. The effect is printed as a negative number. What follows is part of a selection rich in strong results, with near analogues and random picks from the rest.
Below, each of the molecules is paired with its reported hERG current change (%, negative = inhibition) at 10uM value.
Property Measured: hERG current change (%, negative = inhibition) at 10uM (%)

• O=[N+]([O-])c1ccc(O)c(Nc2c([N+](=O)[O-])ccc3nonc23)c1 = 16
• O=C(Nc1c2c(nn1-c1ccc(F)cc1)CS(=O)C2)C12CC3CC(CC(C3)C1)C2 (centres unmarked) = 16.7
• N#Cc1ccc(-c2ccccc2)nc1Sc1ccc(F)cc1 = 13.2
• COc1cc(C=O)ccc1OCCCOc1ccc([N+](=O)[O-])cc1 = -10.8
• CCN(CC(=O)N1CCCCCC1)S(=O)(=O)c1ccc(Cl)cc1 = -13.5
• CC1=C(C(=O)OCC2CCCCC2)C(c2ccc(O)cc2)NC(=O)N1 (centres unmarked) = 12.7
• CCOc1ccc(N2C(=O)CC(N3CCC(O)(c4ccc(Br)cc4)CC3)C2=O)cc1 (centres unmarked) = -49.1
• CCOC(=O)c1c(S(=O)(=O)NCCc2ccco2)c(C)n(C)c1C = -1.25
• CC(C(=O)c1ccc(-c2ccccc2)cc1)[n+]1ccccc1.[Br-] (centres unmarked) = 2.72
• COC(=O)N/N=C\c1cc(Br)ccc1OCc1ccccc1 = -6.55
• CSc1ncccc1C(=O)N1CCCC(N2CCN(c3ccccc3F)CC2)C1 (centres unmarked) = -12.4
• O=c1cc(Nc2ccc3c(c2)OCCO3)[nH]c(=O)n1-c1ccc(Cl)cc1 = -0.327
• O=C(COC(=O)CNC(=O)c1cccs1)Nc1ccc(C(F)(F)F)cc1[N+](=O)[O-] = -44
• COc1cc2cc(C(C)(C)O)oc(=O)c2cc1OC = 13

Cited source: paper PMC4336329
